# Tested on: SU-DHL-5
# ASSAY NOTES: Cytotoxicity assay (CTG, 72 h) in SU-DHL-5
# Type: cell-based
# APPLIED CONDITIONS: Homo sapiens, SU-DHL-5, cell viability
PROPERTY: IC50

1) C[C@H](Nc1nc(N)nc(N)c1C#N)c1cc2ccc(F)cc2nc1-c1ccccn1 : 0.493 µM
2) CC[C@H](Nc1ncnc2[nH]cnc12)c1nc2cccc(F)c2c(=O)n1-c1ccccc1 : 1.68 µM

====

# ASSAY NOTES: Hepatocyte stability (parent drug disappearance in cryopreserved hepatocytes)
# Format: in vitro ADME, human
# APPLIED CONDITIONS: human, cryopreserved hepatocytes, 1 μM substrate, 0.5 million hepatocytes/ml, 37° C.; read-out: hepatocyte T1/2 (converted)
PROPERTY: half-life at 1 μM

1. C[C@H](Nc1ncnc(N)c1C#N)c1cc2ccc(F)cc2nc1-c1ccccc1 [D, reference compound] : 600 min
2. C[C@H](Nc1nc(N)nc(N)c1C#N)c1cc2ccc(F)cc2nc1-c1ccccn1 : 3180 min
3. C[C@H](Nc1nc(N)nc(N)c1C#N)c1cc2ccc(F)cc2nc1-c1ccccc1S(C)(=O)=O : 360 min
4. C[C@H](Nc1ncnc(N)c1C#N)c1cc2cccc(F)c2nc1-c1ccccc1S(C)(=O)=O [F, reference compound] : 354 min

====

Measured half-life at 1 μM, listed per entry.
# ASSAY NOTES: Hepatocyte stability (parent drug disappearance in cryopreserved hepatocytes)
# Assay type: in vitro ADME, human
# APPLIED CONDITIONS: human, cryopreserved hepatocytes, 1 μM substrate, 0.5 million hepatocytes/ml, 37° C.; read-out: hepatocyte T1/2 (converted)
PROPERTY: half-life at 1 μM (h)

1. C[C@H](Nc1ncnc(N)c1C#N)c1cc2ccc(F)cc2nc1-c1cccc(F)c1 [G, reference compound] : 1.2
2. C[C@H](Nc1nc(N)nc(N)c1C#N)c1cc2ccc(F)cc2nc1-c1ccccc1 : 27
3. C[C@H](Nc1nc(N)nc(N)c1C#N)c1cc2cccc(F)c2nc1-c1ccccn1 : 9
4. C[C@H](Nc1ncnc(N)c1C#N)c1cc2ccc(F)cc2nc1-c1ccccn1 [H, reference compound] : 0.88
5. C[C@H](Nc1nc(N)nc(N)c1C#N)c1cc2cccc(F)c2nc1-c1ccccc1S(C)(=O)=O : 59
6. C[C@H](Nc1nc(N)nc(N)c1C#N)c1cc2ccc(F)cc2nc1-c1cc(F)cc(F)c1 : 17
7. C[C@H](Nc1nc(N)nc(N)c1C#N)c1cc2ccc(F)cc2nc1-c1cccc(F)c1 : 20
8. C[C@H](Nc1ncnc(N)c1C#N)c1cc2ccc(F)cc2nc1-c1ccccc1S(C)(=O)=O [Compound E, reference compound] : 4.8

====

# ASSAY NOTES: PK profile after iv and PO dosing in rats
# Type: in vivo, SD rats
# APPLIED CONDITIONS: Sprague-Dawley, rat, in vivo; po, 10 mg/kg, SD rats
# Experimental: Compound 2 was dosed by both iv and PO in the rats.
PROPERTY: bioavailability (%)

1) C[C@H](Nc1nc(N)nc(N)c1C#N)c1cc2ccc(F)cc2nc1-c1ccccn1 : 80

====

# ASSAY NOTES: PK profile after iv and PO dosing in rats
# Assay type: in vivo, SD rats
# APPLIED CONDITIONS: Sprague-Dawley, rat, in vivo, 1.32 mg/kg; iv, rats
PROPERTY: clearance (mL/min/kg)

1. C[C@H](Nc1nc(N)nc(N)c1C#N)c1cc2ccc(F)cc2nc1-c1ccccn1 : 4.6
